- target under test: rat A1 cortical receptors (Rattus norvegicus, UniProt P25099)
- Construct: Rat cerebral cortical membranes and striatal membranes were prepared; from tissue; host or cells: rat cerebral cortex membranes
- Sequence (P25099 whole entry): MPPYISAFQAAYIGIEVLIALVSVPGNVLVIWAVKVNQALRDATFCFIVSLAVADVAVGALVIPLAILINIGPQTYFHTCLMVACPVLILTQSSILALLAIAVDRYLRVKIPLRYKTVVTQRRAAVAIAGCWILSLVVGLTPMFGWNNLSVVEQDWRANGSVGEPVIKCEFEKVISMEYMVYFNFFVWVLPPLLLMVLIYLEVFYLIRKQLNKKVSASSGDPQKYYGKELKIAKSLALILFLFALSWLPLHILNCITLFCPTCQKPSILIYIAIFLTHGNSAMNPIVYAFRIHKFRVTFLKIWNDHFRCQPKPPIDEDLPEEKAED
- assay explanation: Radioligand binding, [3H]N6-phenylisopropyladenosine ([3H]PIA), rat cortical A1 receptors
- test settings: Table I; vs [3H]PIA (1 nM), rat A1 receptors; read-out: Ki (A1)
I'd appreciate it if you could supply log10(Ki) values for the items below.
Log scale reminder: Ki in µM, then log10 taken.

Quick one: log10(Ki) of Cn1c(=O)c2[nH]c(/C=C/c3cccc(C(F)(F)F)c3)nc2n(C)c1=O [Compound 20a] ?
-0.06

Any idea what its log10(Ki) is? The compound is CCn1c(=O)c2c(nc(/C=C/c3cc(OC)c(OC)c(OC)c3)n2C)n(CC)c1=O [Compound 45b]
0.45

Data request, read-out log10(Ki), for COc1ccc(/C=C/c2nc3c(c(=O)n(C)c(=O)n3C)n2C)cc1OC [Compound 32b]
1.14

Need log10(Ki), item Cn1c(=O)c2[nH]c(/C=C/c3cc(F)cc(F)c3)nc2n(C)c1=O [Compound 34a]
0.37

Give its log10(Ki) value. Item: CCn1c(/C=C/c2cc(OC)c(OC)c(OC)c2)nc2c1c(=O)n(C)c(=O)n2C [Compound 44c]
0.80

# lookup: log10(Ki) of CCCn1c(=O)c2c(nc(/C=C/c3cc(F)cc(F)c3)n2C)n(CCC)c1=O [Compound 54b]
-0.42

Find the recorded log10(Ki) belonging to COc1cc(/C=C/c2nc3c([nH]2)c(=O)n(C)c(=O)n3C)cc(OC)c1 [Compound 33a] and report it.
0.48

# lookup: log10(Ki) of Cn1c(=O)c2c(nc(/C=C/c3cccc(F)c3)n2C)n(C)c1=O [Compound 27b]
1.20
